The reported numbers originate from patent US20250215012A1.

biological target: IKZF2 (Homo sapiens (Human), UniProt Q96SW2+Q9UKS7); experiment: IKZF2 HiBiT Assay (Jurkat-IKZF2-HiBiT cell line); type: cell-based; settings: Jurkat-IKZF2-HiBiT cells, 24 hours; read-out: HiBit assay degradation analysis DC50
Sequence (Q9UKS7 whole entry): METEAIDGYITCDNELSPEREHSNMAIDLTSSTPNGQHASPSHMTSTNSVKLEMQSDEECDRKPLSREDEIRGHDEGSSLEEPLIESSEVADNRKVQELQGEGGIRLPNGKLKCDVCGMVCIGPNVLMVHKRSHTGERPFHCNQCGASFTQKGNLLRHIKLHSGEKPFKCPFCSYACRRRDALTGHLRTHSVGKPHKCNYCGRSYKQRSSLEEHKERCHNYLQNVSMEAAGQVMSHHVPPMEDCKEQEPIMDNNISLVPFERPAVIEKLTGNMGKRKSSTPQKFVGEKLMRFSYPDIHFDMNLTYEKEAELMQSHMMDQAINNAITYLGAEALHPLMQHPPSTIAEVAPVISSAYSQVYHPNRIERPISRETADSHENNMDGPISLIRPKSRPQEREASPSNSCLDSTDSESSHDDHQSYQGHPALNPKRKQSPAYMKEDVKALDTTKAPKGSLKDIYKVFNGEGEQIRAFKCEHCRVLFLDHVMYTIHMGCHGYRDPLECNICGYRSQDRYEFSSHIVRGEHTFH
Sequence (Q96SW2 whole entry): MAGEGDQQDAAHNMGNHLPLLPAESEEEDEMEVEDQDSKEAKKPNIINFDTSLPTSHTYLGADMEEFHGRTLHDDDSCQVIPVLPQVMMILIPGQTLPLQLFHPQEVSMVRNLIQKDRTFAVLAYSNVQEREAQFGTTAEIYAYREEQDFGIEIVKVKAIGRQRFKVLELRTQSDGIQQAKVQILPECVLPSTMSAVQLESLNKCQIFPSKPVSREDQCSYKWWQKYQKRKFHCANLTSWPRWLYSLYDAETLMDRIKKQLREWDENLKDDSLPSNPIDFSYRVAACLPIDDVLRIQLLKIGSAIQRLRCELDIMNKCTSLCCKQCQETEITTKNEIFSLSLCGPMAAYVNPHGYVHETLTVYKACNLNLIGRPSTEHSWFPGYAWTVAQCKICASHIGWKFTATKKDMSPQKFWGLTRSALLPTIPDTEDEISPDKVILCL
Sequence (Q16531 whole entry partner): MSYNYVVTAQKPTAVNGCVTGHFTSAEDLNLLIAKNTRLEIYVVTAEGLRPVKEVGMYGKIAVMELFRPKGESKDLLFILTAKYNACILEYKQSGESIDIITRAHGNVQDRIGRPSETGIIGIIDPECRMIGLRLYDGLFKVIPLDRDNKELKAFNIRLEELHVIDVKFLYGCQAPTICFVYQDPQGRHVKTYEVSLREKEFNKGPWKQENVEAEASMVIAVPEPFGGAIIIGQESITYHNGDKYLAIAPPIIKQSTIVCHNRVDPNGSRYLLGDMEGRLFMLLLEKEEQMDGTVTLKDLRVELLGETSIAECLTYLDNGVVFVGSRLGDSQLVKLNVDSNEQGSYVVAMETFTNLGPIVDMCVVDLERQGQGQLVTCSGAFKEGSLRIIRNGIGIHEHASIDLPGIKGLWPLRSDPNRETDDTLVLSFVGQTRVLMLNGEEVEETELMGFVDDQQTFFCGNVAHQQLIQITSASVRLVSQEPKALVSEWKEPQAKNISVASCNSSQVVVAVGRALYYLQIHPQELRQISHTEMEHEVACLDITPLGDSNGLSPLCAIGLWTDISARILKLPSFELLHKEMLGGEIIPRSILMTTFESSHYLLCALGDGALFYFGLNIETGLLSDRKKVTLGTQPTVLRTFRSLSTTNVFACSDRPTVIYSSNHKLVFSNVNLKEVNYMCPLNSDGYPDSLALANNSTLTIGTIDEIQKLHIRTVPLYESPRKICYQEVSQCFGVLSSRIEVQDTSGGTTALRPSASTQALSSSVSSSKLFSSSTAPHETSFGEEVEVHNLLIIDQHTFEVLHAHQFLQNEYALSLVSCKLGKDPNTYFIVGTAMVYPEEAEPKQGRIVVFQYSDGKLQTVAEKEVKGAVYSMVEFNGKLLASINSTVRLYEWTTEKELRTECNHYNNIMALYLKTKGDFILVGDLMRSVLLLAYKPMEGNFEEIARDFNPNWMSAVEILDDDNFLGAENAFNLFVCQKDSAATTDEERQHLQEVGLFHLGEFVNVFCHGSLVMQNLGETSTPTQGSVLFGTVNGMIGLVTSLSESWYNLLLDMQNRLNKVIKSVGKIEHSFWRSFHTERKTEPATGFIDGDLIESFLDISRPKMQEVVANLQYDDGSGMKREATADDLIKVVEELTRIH
measurement label: DC50

Example entries begin here.
COc1ccc(CN2CCC3(CC2)COc2c3ccc3c2CN(C2CCC(=O)NC2=O)C3=O)cc1 (centres unmarked)
> 500 nM
Cn1ncc2cccc(CN3CCC4(CC3)COc3c4ccc4c3CN(C3CCC(=O)NC3=O)C4=O)c21 (centres unmarked)
> 500 nM
Cn1ncc2cc(F)c(CN3CCC4(CC3)COc3c4ccc4c3CN(C3CCC(=O)NC3=O)C4=O)cc21 (centres unmarked)
> 500 nM

Lab note: each molecule below needs its DC50 filled in.
1. CC(C)(C)c1cccc(CN2CCC3(CC2)COc2c3ccc3c2CN(C2CCC(=O)NC2=O)C3=O)c1 (centres unmarked)
2. O=C1CCC(N2Cc3c(ccc4c3OCC43CCN(Cc4cnn(CC(F)(F)F)c4)CC3)C2=O)C(=O)N1 (centres unmarked)
3. CC(c1ccccc1)N1CCC2(CC1)COc1c2ccc2c1CN(C1CCC(=O)NC1=O)C2=O (centres unmarked)
4. O=C1CCC(N2Cc3c(ccc4c3OCC43CCN(Cc4cnn(S(=O)(=O)c5cccc(Cl)c5)c4)CC3)C2=O)C(=O)N1 (centres unmarked)
5. O=C1CCC(N2Cc3c(ccc4c3OCC43CCN(Cc4ccc(F)cc4)CC3)C2=O)C(=O)N1 (centres unmarked)

Response:
1: > 500 nM; 2: > 500 nM; 3: < 50 nM; 4: < 50 nM; 5: > 500 nM

Lab note: each molecule below needs its DC50 filled in.
1. O=C1CCC(N2Cc3c(ccc4c3OCC43CCN(Cc4cnn(-c5ccc(F)cc5)c4)CC3)C2=O)C(=O)N1 (centres unmarked)
2. O=C1CCC(N2Cc3c(ccc4c3OCC43CCN(CC4CCCC4)CC3)C2=O)C(=O)N1 (centres unmarked)
3. O=C1CCC(N2Cc3c(ccc4c3OCC43CCN(Cc4c(F)ccc5occc45)CC3)C2=O)C(=O)N1 (centres unmarked)

Response:
1. > 500 nM
2. > 500 nM
3. 200 to 500 nM
